Consider the following compounds; for each one, report its growth.
Test system: E. coli TESEC Mtb Alr
PROTOCOL TEXT: growth (OD600 after 10 h); higher = more growth (less inhibition)
CONDITION: arabinose 1000000 nM; compound 0.1 mM; raw OD600 reference: median of DMSO wells 0.193, cell-free background 0.041
Counter-ions that a name gives are not always drawn.
Give bare numbers.

Quick request: growth for each listed item, please.
1. Oc1ccc2c3c1O[C@H]1[C@@H](O)CC[C@@]4(O)[C@@H](C2)N(CC2CCC2)CC[C@]314 [Nalbuphine hydrochloride]
2. C[N+](C)(C)CCCCCCCCCC[N+](C)(C)C [Decamethonium bromide]
3. C[CH2][Hg][S]c1ccccc1C(=O)[O-].[Na+]
4. CCC(=O)O[C@@](Cc1ccccc1)(c1ccccc1)[C@@H](C)CN(C)C [Levopropoxyphene napsylate]
5. CCN(C)C(=O)Oc1cccc([C@H](C)N(C)C)c1

Reply:
[0.175, 0.208, 0.0464, 0.156, 0.19]

I need growth for every entry listed below, if you could help.
1. C[N+]1(C)CCOC(O)(c2ccc(-c3ccc(C4(O)C[N+](C)(C)CCO4)cc3)cc2)C1 (stereo not drawn) [Hemicholinium bromide]
2. CN1[C@@H]2CC[C@H]1C[C@@H](OC1c3ccccc3CCc3ccccc31)C2 [Deptropine citrate]
3. CC(C)(N)Cc1ccccc1 [Phentermine hydrochloride]

Reply:
1: 0.174; 2: 0.0411; 3: 0.193
